assay: Inhibition of Saccharomyces cerevisiae alpha-glucosidase for 15 mins by multiplate reader method using 0.7 mM p-nitrophenyl-alpha-D-glucopyranoside as substrate; conditions: read-out: IC50
pIC50: −log10 of the molar value.
READOUT: pIC50

COMPOUND SMILES: CN(C)c1ccc(-c2nc(O)c3ccccc3n2)cc1
RESULT NUMBER: 5.56

COMPOUND SMILES: O=c1[nH]c(-c2c(O)cccc2Br)nc2ccccc12
RESULT NUMBER: 5.01

COMPOUND SMILES: O=c1[nH]c(-c2cccc([N+](=O)[O-])c2)nc2ccccc12
RESULT NUMBER: 4.74

A = COc1ccc(-c2nc3ccccc3c(=O)[nH]2)cc1O
B = O=c1[nH]c(-c2ccc([N+](=O)[O-])cc2)nc2ccccc12
C = O=c1[nH]c(-c2ccc(O)cc2)nc2ccccc12
D = COc1ccc(-c2nc(O)c3ccccc3n2)cc1
Hey, quick one: sort these by pIC50, largest value first please. Respond with the label ranking, as requested.
D, A, C, B

A = O=c1[nH]c(-c2ccc(O)c(O)c2)nc2ccccc12
B = O=c1[nH]c(-c2cc(Cl)ccc2Cl)nc2ccccc12
A or B : whose pIC50 is greater? Kindly give the label for the entry you pick.
A
(A: 5.82, B: 4.79)

1 = O=c1[nH]c(-c2cc(O)ccc2O)nc2ccccc12
2 = COc1cccc(-c2nc3ccccc3c(=O)[nH]2)c1O
// select label with min value of measured pIC50 from [ 1 , 2 ] Bench note: the answer is the label of the chosen record.
2
(2: 4.83, 1: 5.63)

====

experiment: Non-Competitive inhibition of Saccharomyces cerevisiae alpha-glucosidase by multiplate reader method using p-nitrophenyl-alpha-D-glucopyranoside as substrate
READOUT: Ki (nM)
Quick note: give the figure in nM, leave out the unit.

Ki lookup needed for COc1ccc(-c2nc(O)c3ccccc3n2)cc1 , thanks.
250

Hey, just so you know, these numbers are from ChEMBL document CHEMBL3627644.
